MIC listing for selected molecules.
system: Streptococcus viridans; test: Activity in vitro: minimum inhibitory concentration; assay type: cell-based
Structures can show the parent of a compound that is named as a salt.

Example molecules with recorded MIC:
molecule	MIC
CO/N=C(\C(=O)N[C@@H]1C(=O)N2C(C(=O)[O-])=C(CSc3nnnn3C)CS[C@H]12)c1c[se]c(N)n1.[Na+]	0.8 µg/mL
CO/N=C(\C(=O)N[C@@H]1C(=O)N2C(C(=O)O)=C(CSc3nc(=O)c(O)nn3C)C[S+]([O-])[C@H]12)c1c[se]c(N)n1 (stereo partly drawn) [Product E, disodium salt]	> 12 µg/mL
CO/N=C(\C(=O)N[C@@H]1C(=O)N2C(C(=O)O)=C(C)CS[C@H]12)c1c[se]c(N)n1 [Product F, sodium salt]	12.5 µg/mL
CC1=C(C(=O)[O-])N2C(=O)[C@@H](NC(=O)/C(=N\O)c3c[se]c(N)n3)[C@H]2SC1.[Na+]	25 µg/mL
CO/N=C(\C(=O)N[C@@H]1C(=O)N2C(C(=O)O)=C(CSc3nc(=O)c(O)nn3C)CS[C@H]12)c1c[se]c(N)n1 [Product C, disodium salt]	3.1 µg/mL

Now look at this one.
Ask: Please look up its MIC: CC(C)(O/N=C(\C(=O)N[C@@H]1C(=O)N2C(C(=O)[O-])=C(C[n+]3ccccc3)CS[C@H]12)c1c[se]c(N)n1)C(=O)O
Result: 3.1 µg/mL

###

Structures can show the parent of a compound that is named as a salt.
Below are MIC values recorded for Streptococcus viridans.
Please state the figure in µg/mL; there is no need to write the unit.

Example entries and their recorded answers appear below.
                                   molecule  unitspec  recordedmeasurement
0  CO/N=C(\C(=O)N[C@@H]1C(=O)N2C(C(=O)O)=C(CSc3nnc(C)s3)CS[C@H]12)c1c[se]c(N)n1 [Product B, sodium salt]     µg/mL                  0.8
1  CC(=O)OCC1=C(C(=O)O)N2C(=O)[C@@H](NC(=O)/C(=N\OC(C)(C)C(=O)O)c3c[se]c(N)n3)[C@H]2SC1 [Product I, disodium salt]     µg/mL                  6.3
2  CC(=O)OCC1=C(C(=O)[O-])N2C(=O)[C@@H](NC(=O)/C(=N\O)c3c[se]c(N)n3)[C@H]2SC1.[Na+] [Product L]     µg/mL                  0.8

Now turn to the next molecule.
Ask: MIC of CO/N=C(\C(=O)N[C@@H]1C(=O)N2C(C(=O)[O-])=C(CSc3n[nH]c(=O)c(=O)n3C)CS[C@H]12)c1c[se]c(N)n1.[Na+] [Product G] on Streptococcus viridans?
Result: 0.8

###

tested on: Pseudomonas aeruginosa; assay: Activity in vitro: minimum inhibitory concentration; assay type: cell-based; conditions: Pseudomonas aeruginosa strain 3
Counter-ions that a name gives are not always drawn.
Listing of entries alongside the reported MIC.

The following molecules have reported results that may help.
molecule	MIC
CC(=O)OCC1=C(C(=O)[O-])N2C(=O)[C@@H](NC(=O)/C(=N\O)c3c[se]c(N)n3)[C@H]2SC1.[Na+]	12.5 µg/mL
CO/N=C(\C(=O)N[C@@H]1C(=O)N2C(C(=O)O)=C(C)CS[C@H]12)c1c[se]c(N)n1 [Product F, sodium salt]	200 µg/mL
CC(C)(O/N=C(\C(=O)N[C@@H]1C(=O)N2C(C(=O)[O-])=C(C[n+]3ccccc3)CS[C@H]12)c1c[se]c(N)n1)C(=O)O	1.6 µg/mL

Ask: May I ask what MIC has been recorded for CC(=O)OCC1=C(C(=O)O)N2C(=O)[C@@H](NC(=O)/C(=N\OC(C)(C)C(=O)O)c3c[se]c(N)n3)[C@H]2SC1 [Product I, disodium salt] ?
Result: 1.6 µg/mL

Ask: Could you share which MIC value was measured for CO/N=C(\C(=O)N[C@@H]1C(=O)N2C(C(=O)O)=C(COC(C)=O)CS[C@H]12)c1c[se]c(N)n1 [Product D, disodium salt] ?
Result: 3.1 µg/mL

Ask: Quick check: MIC of CO/N=C(\C(=O)N[C@@H]1C(=O)N2C(C(=O)[O-])=C(CSc3nnnn3C)CS[C@H]12)c1c[se]c(N)n1.[Na+] ?
Result: 6.3 µg/mL

Ask: Name the reported MIC value associated with the molecule CO/N=C(\C(=O)N[C@@H]1C(=O)N2C(C(=O)[O-])=C(CSc3n[nH]c(=O)c(=O)n3C)CS[C@H]12)c1c[se]c(N)n1.[Na+]
Result: 25 µg/mL

Ask: Reported MIC for CO/N=C(\C(=O)N[C@@H]1C(=O)N2C(C(=O)O)=C(CSc3nc(=O)c(O)nn3C)C[S+]([O-])[C@H]12)c1c[se]c(N)n1 (some centres unmarked) [Product E, disodium salt] : what is it?
Result: 50 µg/mL

Ask: Report MIC for CO/N=C(\C(=O)N[C@@H]1C(=O)N2C(C(=O)O)=C(CSc3nnc(C)s3)CS[C@H]12)c1c[se]c(N)n1 [Product B, sodium salt] please.
Result: 6.3 µg/mL

Ask: What measured MIC goes with CC1=C(C(=O)[O-])N2C(=O)[C@@H](NC(=O)/C(=N\O)c3c[se]c(N)n3)[C@H]2SC1.[Na+] ?
Result: > 400 µg/mL

Ask: # query: MIC of entry CO/N=C(\C(=O)N[C@@H]1C(=O)N2C(C(=O)O)=C(CSc3nc(=O)c(O)nn3C)CS[C@H]12)c1c[se]c(N)n1 [Product C, disodium salt]
Result: 1.6 µg/mL
